# Tested on: OVCAR-3
# test: In vitro inhibition of tumor cell growth of OVCAR-3, ovarian cancer cell line
# Format: functional
# run conditions: Homo sapiens
experimental endpoint: GI50 (µM)
Number in µM, nothing else.

## Input # lookup: GI50 of Oc1cc(-c2ccco2)nc2cc3c(cc12)OCO3
## Output 42.7

## Input Can you handle Oc1cc(-c2ccccc2Cl)nc2cc3c(cc12)OCO3 next?
## Output 0.0776

## Input Can you handle Oc1cc(-c2ccccc2)nc2cc3c(cc12)OCO3 next?
## Output 0.162

## Input Can you handle Oc1cc(-c2ccc3c(c2)OCO3)nc2cc3c(cc12)OCO3 next?
## Output 19.5

## Input Can you handle CN(C)c1cccc(-c2cc(O)c3ccccc3n2)c1 next?
## Output 41.7

## Input Can you handle COc1ccc(OC)c(-c2cc(O)c3cc4c(cc3n2)OCO4)c1 next?
## Output 4.9

====

# Tested on: OVCAR-3
# test: In vitro inhibition of tumor cell growth of OVCAR-3, ovarian cancer cell line
# Format: functional
# run conditions: Homo sapiens
experimental endpoint: GI50 (µM)
Number in µM, nothing else.

## Input # lookup: GI50 of COc1cccc(-c2cc(O)c3ccccc3n2)c1
## Output 5.5

## Input Can you handle Oc1cc(-c2ccccn2)nc2ccc(Cl)cc12 next?
## Output 63.1

## Input Can you handle COc1cccc(-c2cc(O)c3cc4c(cc3n2)OCO4)c1 next?
## Output 0.0457

## Input Can you handle O=c1cc(-c2ccccc2F)[nH]c2cc3c(cc12)OCO3 next?
## Output 0.0813

## Input Can you handle COc1cc(OC)cc(-c2cc(O)c3cc4c(cc3n2)OCO4)c1 next?
## Output 0.195

## Input Can you handle Cc1ccc(-c2cc(O)c3cc4c(cc3n2)OCO4)cc1 next?
## Output 0.427

## Input Can you handle Oc1cc(/C=C/c2ccccc2)nc2cc3c(cc12)OCO3 next?
## Output 2.24

## Input Can you handle Oc1cc(-c2ccc[nH]2)nc2cc3c(cc12)OCO3 next?
## Output 30.9

## Input Can you handle Oc1cc(-c2cccs2)nc2cc3c(cc12)OCO3 next?
## Output 7.94

## Input Can you handle CN(C)c1cccc(-c2cc(O)c3cc4c(cc3n2)OCO4)c1 next?
## Output 0.245

====

# study target: Tubulin (Bos taurus) (UniProt Q6B856+Q862L2+Q862F3)
# test: Inhibition of colchicine binding to tubulin isolated from bovine brain tissue
# Assay type: functional
# Parameters: concentration or dose not given beside the values
# run conditions: concentration not given here
Label scheme for inhibition: lower than 20% is 0.0, 20% and above is 1.0.

## Input Textbook exercise: given the entry Oc1cc(-c2ccccc2Cl)nc2cc3c(cc12)OCO3 , state whether its inhibition is greater than or equal to 20%.
## Output 1.0

## Input Can you handle Cc1ccc(-c2cc(O)c3cc4c(cc3n2)OCO4)cc1 next?
## Output 0.0

## Input Can you handle COc1ccc2nc(-c3cccc(N(C)C)c3)cc(O)c2c1 next?
## Output 0.0

## Input Can you handle COc1cc(OC)cc(-c2cc(O)c3cc4c(cc3n2)OCO4)c1 next?
## Output 1.0

## Input Can you handle O=c1cc(-c2ccccc2F)[nH]c2cc3c(cc12)OCO3 next?
## Output 1.0

## Input Can you handle COc1cccc(-c2cc(O)c3cc(OC)ccc3n2)c1 next?
## Output 0.0

## Input Can you handle COc1ccc2nc(-c3ccccc3)cc(O)c2c1 next?
## Output 0.0
